# targetOrSystem: PI3Kβ (complex of human p110β and human p85α) (Homo sapiens (Human), UniProt P42338)
# Sequence (P42338 whole entry, the tested form may be a part): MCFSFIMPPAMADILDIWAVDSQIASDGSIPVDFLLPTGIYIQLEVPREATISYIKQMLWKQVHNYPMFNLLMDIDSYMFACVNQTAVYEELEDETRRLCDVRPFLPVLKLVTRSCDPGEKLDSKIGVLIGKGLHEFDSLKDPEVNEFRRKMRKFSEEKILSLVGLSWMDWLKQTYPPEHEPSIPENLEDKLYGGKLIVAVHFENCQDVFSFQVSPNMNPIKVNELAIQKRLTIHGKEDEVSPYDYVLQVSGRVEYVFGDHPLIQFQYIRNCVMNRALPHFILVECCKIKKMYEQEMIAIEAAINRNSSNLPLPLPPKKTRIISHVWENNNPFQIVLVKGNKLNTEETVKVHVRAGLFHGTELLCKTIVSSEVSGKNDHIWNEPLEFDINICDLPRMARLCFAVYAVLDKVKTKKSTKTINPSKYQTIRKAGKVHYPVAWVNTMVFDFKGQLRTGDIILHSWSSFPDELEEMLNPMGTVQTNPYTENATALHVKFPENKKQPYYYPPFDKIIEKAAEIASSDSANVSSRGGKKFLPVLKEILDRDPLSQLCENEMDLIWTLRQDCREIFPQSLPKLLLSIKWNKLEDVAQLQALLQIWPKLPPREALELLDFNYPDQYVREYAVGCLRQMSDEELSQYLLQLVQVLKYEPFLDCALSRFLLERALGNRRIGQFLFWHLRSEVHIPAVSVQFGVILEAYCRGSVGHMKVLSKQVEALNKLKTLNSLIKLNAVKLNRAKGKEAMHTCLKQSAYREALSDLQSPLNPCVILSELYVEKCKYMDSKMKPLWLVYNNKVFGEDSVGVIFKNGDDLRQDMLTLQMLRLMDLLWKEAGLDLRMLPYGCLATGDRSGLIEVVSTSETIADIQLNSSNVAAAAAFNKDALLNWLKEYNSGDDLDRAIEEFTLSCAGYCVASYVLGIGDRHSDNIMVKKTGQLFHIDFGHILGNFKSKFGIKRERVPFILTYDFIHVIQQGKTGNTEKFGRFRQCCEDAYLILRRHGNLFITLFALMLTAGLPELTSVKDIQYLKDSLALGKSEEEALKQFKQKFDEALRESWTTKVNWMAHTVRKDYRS
# Sequence (P27986 whole entry partner, the tested form may be a part): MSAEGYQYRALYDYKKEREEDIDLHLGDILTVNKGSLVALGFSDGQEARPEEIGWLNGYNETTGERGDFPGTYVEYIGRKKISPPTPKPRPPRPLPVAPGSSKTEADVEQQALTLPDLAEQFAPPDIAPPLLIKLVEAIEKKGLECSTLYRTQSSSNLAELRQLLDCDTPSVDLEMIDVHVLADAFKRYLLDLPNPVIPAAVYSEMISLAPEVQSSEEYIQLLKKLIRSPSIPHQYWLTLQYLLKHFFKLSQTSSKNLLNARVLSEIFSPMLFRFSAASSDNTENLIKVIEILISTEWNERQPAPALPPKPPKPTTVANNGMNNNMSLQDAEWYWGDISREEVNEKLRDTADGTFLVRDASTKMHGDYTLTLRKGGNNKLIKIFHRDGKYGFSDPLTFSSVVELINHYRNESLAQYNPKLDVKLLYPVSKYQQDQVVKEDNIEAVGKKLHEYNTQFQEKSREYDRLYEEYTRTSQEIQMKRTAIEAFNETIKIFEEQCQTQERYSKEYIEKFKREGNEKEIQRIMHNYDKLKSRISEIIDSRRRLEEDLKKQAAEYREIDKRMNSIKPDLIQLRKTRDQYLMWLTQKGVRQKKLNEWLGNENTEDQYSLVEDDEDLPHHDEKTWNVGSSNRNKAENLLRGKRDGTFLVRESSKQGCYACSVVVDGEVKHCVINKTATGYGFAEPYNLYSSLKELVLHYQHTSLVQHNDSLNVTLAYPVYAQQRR
# experimentSummary: PI3Kβ kinase assay (HTRF-based PI3K inhibition assay);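 note: Kinase-made PIP3 detected by HTRF, displacing biotinylated PIP3 tracer from a complex of Europium anti-GST antibody, GST-fused PH domain and Streptavidin-APC, read as Europium-to-APC energy transfer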
# measurementConditions: 10 μM ATP, 10 μM PIP2, 20 min at 22° C.; read-out: average IC50 in the PI3K beta biochemical assay
Counter-ions that a name gives are not always drawn.
Examples of compounds with documented IC50 follow.
quantityMeasured: IC50

>>> endpointvalue("COc1c(OC[C@H](O)CN2CCCC2)ccc2c1N=C(NC(=O)c1cncs1)N1CCN=C21")
"10 to 50 nM"
>>> endpointvalue("COc1c(OC[C@H](O)CN(C)C)ccc2c1N=C(NC(=O)c1cccnc1)N1CCN=C21")
"10 to 50 nM"
>>> endpointvalue("COc1c(OC[C@H](O)CN2CCC2)ccc2c1N=C(NC(=O)c1cccnc1)N1CCN=C21")
"> 50 nM"
>>> endpointvalue("COc1c(OC[C@H](O)CN2CC3CCC(C2)O3)ccc2c1N=C(NC(=O)c1cnc(N)nc1)N1CCN=C21 [Example 28, dihydrochloride]")
"< 10 nM"
>>> endpointvalue("COc1c(OC[C@H](O)CN2CCCC2)ccc2c1N=C(NC(=O)c1cccnc1)N1CCN=C21")
"10 to 50 nM"
>>> endpointvalue("COc1c(OC[C@H](O)CN(C(C)C)C(C)C)ccc2c1N=C(NC(=O)c1cccnc1)N1CCN=C21")
"10 to 50 nM"
>>> endpointvalue("COc1c(OC[C@H](O)CN2CCOCC2)ccc2c1N=C(NC(=O)c1sc(N)nc1C)N1CCN=C21")
"< 10 nM"
